meta.source: ChEMBL document CHEMBL3588801

- Experimental Details: Lipophilicity log P of the compound
- Assay type: physicochemical
- Assay Setup: octanol/water
Property Label: logP

For the compound NC(=S)N/N=C/COc1ccc(Cl)c(Cl)c1 , what logP is on record?
3.3

Please give the measured logP for this compound: COc1ccc(OC/C=N/NC(N)=S)cc1
2.09

Endpoint output: logP of NC(=S)N/N=C/c1ccc(Cl)cc1 . Value?
2.63

Query: logP; subject: NC(=S)N/N=C/COc1ccccc1
2.01

Suppose we examine the compound N/C(S)=N/N=C/c1ccc(Cl)c(Cl)c1 ; what logP value has been reported?
3.27

Data request, read-out logP, for NC(=S)N/N=C/c1ccc(F)cc1
2.18

// lookup logP for NC(=S)N/N=C/COc1cccc(Cl)c1
2.65

Item NC(=S)N/N=C/c1ccc(Br)cc1 has what recorded logP?
2.87

Query (compound): NC(=S)N/N=C/COc1cccc(Cl)c1Cl ; field requested: logP
3.3

# get_value(readout='logP', item= C/C(=N\NC(N)=S)C(C)Oc1ccc(Cl)c(Cl)c1 (configuration not stated) )
4.87

Please look up its logP: NC(=S)N/N=C/COc1ccc(Br)cc1
2.9

Look at this compound and give its reported logP. NC(=S)N/N=C/COc1ccc(Cl)cc1
2.65

----------
- Experimental Details: Cytotoxicity against BALB/c mouse splenocytes assessed as reduction in cell viability incubated for 24 hrs by beta-radiation counting based [3H]-thymidine incorporation assay
- Design: species or system Splenocyte
Parameter class (string): assigned from measured MNTC at 24 h. Ranges: LOW (below 20 µM), MEDIUM (20 µM to below 90 µM), HIGH (90 µM or more)

Determine which band this molecule sits in: COc1ccc(OC/C=N/NC(N)=S)cc1
MEDIUM

For this molecule, which bin applies? NC(=S)N/N=C/c1ccc(Cl)cc1
MEDIUM

Band of NC(=S)N/N=C/COc1cccc(Cl)c1Cl ?
LOW

The entry to classify is NC(=S)N/N=C/c1ccc(F)cc1 ; which class holds it?
MEDIUM

Quick check: band for NC(=S)N/N=C/C=C/c1ccccc1
LOW

State the band of NC(=S)N/N=C/COc1ccc(Br)cc1
HIGH

Band of NC(=S)N/N=C/COc1ccc(Cl)cc1 ?
HIGH

Dear colleague, I would appreciate it if you could identify the bin for NC(=S)N/N=C/c1ccc(O)cc1 and reply at your convenience.
LOW

Returns: class label. Input: NC(=S)N/N=C/c1ccc(Br)cc1
LOW

Could you tell me which band NC(=O)N/N=C/c1ccc(Cl)c(Cl)c1 belongs to?
HIGH

Which category does the recorded MNTC at 24 h put NC(=S)N/N=C/COc1cccc(Cl)c1 in?
HIGH

Hi there! Could you help me figure out the category for NC(=S)N/N=C/COc1ccccc1 please?
HIGH

----------
Please respond with reported LC50 for every item in the list.
- Tested on: Aedes aegypti
- Experimental Details: Larvicidal activity against Aedes aegypti
- Type: functional
Give just the numeric value; µg/mL need not be written.

Reported LC50 for CC(C)CNC(=O)/C=C/C=C/CC/C=C/c1ccc2c(c1)OCO2 [RETROFRACTAMIDE A] : what is it?
0.04

Requested field: LC50. Item: CCCCC/C=C/C=C/C(=O)NCC(C)C [PELLITORIN]
0.92

Field request: LC50 | item: CC(C)CNC(=O)/C=C/C=C/CCCC/C=C/c1ccc2c(c1)OCO2 [RETROFRACTAMIDE B]
0.1

Please look up its LC50: CC(C)CNC(=O)/C=C/C=C/CCCCCC/C=C/c1ccc2c(c1)OCO2 [GUINEENSINE]
0.89
